- condition set: 387.15 K; Crystal; Transpiration method
± gives the expanded uncertainty stated by the source.
Attribute: vapor or sublimation pressure
Returns: string containing the numeric result and its unit.

| molecule | vapor or sublimation pressure |
| --- | --- |
| CCc1ccc(NC2=NCCC3(CCCCC3)S2)cc1 [N-(4-ethylphenyl)-1-thia-3-azaspiro[5.5]undec-2-en-2-amine] | 0.0003632 ± 3.9e-05 kPa |
| FC(F)(F)c1ccc(NC2=NCCC3(CCCCC3)S2)cc1 | 6.2e-05 ± 6.6e-06 kPa |
| Clc1ccc(NC2=NCCC3(CCCCC3)S2)cc1 [N-(4-chlorophenyl)-1-thia-3-azaspiro[5.5]undec-2-en-2-amine] | 7.69e-05 ± 8.2e-06 kPa |

// next entry
Exam item: Which measured vapor or sublimation pressure value corresponds to Cc1ccc(NC2=NCCC3(CCCCC3)S2)cc1Cl ?
Marked response: 1.13e-05 ± 1.2e-06 kPa

###

Attribute: vapor or sublimation pressure
- condition set: 385.15 K; Crystal; Transpiration method
Kindly answer with a numeric value in kPa, unit omitted.

| compound | vapor or sublimation pressure (kPa) |
| --- | --- |
| Cc1ccc(NC2=NCCC3(CCCCC3)S2)cc1Cl | 7.9e-06 |
| Brc1ccc(NC2=NCCC3(CCCCC3)S2)cc1 [N-(4-bromophenyl)-1-thia-3-azaspiro[5.5]undec-2-en-2-amine] | 1.92e-05 |
| CC(C)c1ccc(NC2=NCCC3(CCCCC3)S2)cc1 | 0.0001533 |

// next entry
Exam item: Which measured vapor or sublimation pressure value corresponds to FC(F)(F)c1ccc(NC2=NCCC3(CCCCC3)S2)cc1 ?
Marked response: 5.32e-05

###

- condition set: 395.15 K; Crystal; Transpiration method
measurement label: vapor or sublimation pressure (kPa)
Kindly answer with a numeric value in kPa, unit omitted.

Here are 3 compounds together with their reported answers.
| compound | unit of measure | vapor or sublimation pressure |
| --- | --- | --- |
| Clc1ccc(NC2=NCCC3(CCCCC3)S2)cc1 [N-(4-chlorophenyl)-1-thia-3-azaspiro[5.5]undec-2-en-2-amine] | kPa | 0.0001855 |
| Brc1ccc(NC2=NCCC3(CCCCC3)S2)cc1 [N-(4-bromophenyl)-1-thia-3-azaspiro[5.5]undec-2-en-2-amine] | kPa | 6.74e-05 |
| Cc1ccc(NC2=NCCC3(CCCCC3)S2)cc1Cl | kPa | 2.05e-05 |

// next entry
Exam item: Which measured vapor or sublimation pressure value corresponds to FC(F)(F)c1ccc(NC2=NCCC3(CCCCC3)S2)cc1 ?
Marked response: 0.0001376

###

- condition set: 386.15 K; Crystal; Transpiration method
measurement label: vapor or sublimation pressure (kPa)
Kindly answer with a numeric value in kPa, unit omitted.

Here are 3 compounds together with their reported answers.
| compound | vapor or sublimation pressure (kPa) |
| --- | --- |
| FC(F)(F)c1ccc(NC2=NCCC3(CCCCC3)S2)cc1 | 5.53e-05 |
| CCc1ccc(NC2=NCCC3(CCCCC3)S2)cc1 [N-(4-ethylphenyl)-1-thia-3-azaspiro[5.5]undec-2-en-2-amine] | 0.000327 |
| Cc1ccc(NC2=NCCC3(CCCCC3)S2)cc1Cl | 8.8e-06 |

// next entry
Exam item: Which measured vapor or sublimation pressure value corresponds to CC(C)c1ccc(NC2=NCCC3(CCCCC3)S2)cc1 ?
Marked response: 0.0001933

Origin of the recorded values: the NIST ThermoML archive (doi:10.1021/je300610y)
